The measured values listed here are drawn from PubChem BioAssay AID652126.

Reported activation values for the following compounds.
Tested on: Nuclear hormone receptor DAF-12 (Strongyloides stercoralis)
Assay: S. stercoralis DAF-12 nuclear receptor activators, primary screen, cell-based, luminescence, HEK293, GRIP1 co-expression, lit1-tk-luc (AID 652126);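 note: 0% = DMSO-only wells and 100% = 3 µM delta7-dafachronic acid wells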
Details: HEK293 ssDAF-12/GRIP1 lit1-tk-luc reporter, at 6.8 µM, hits give high values, % of 3 µM dafachronic acid response
Hit rate of the full screen: of about 370,000 compounds, about 3,700 (1%) were called active. Many of the other results were omitted from the sample, so actives are more common in it than they were.
Quick reminder: number only, in %, skip the unit.

Worked cases, activation given:
O=C(CSc1nnc(-c2c[nH]c3ccccc23)o1)c1ccccc1: -0.81
COc1cncc(-c2cnc3sc(NCCc4ccccn4)nn23)c1: -1.45
COC(=O)C[C@H]1CC[C@H]2[C@H](COc3ccc(NC(=O)C4CC4)cc3C(=O)N2C)O1: -1.49
c1ccc(-c2csc(N3CCc4ccccc4C3)n2)cc1: 0.8
COC(=O)CCc1sc(Nc2ccc(Br)cc2)nc1-c1ccc(OC)cc1: -1.64

### Prompt Using known records, supply activation for `NC(=O)CSc1c[nH]c2ccccc12`
### Response 1.11

### Prompt Given `Cc1ccc(Cn2cc(COC(=O)N(C)Cc3ccccc3)nn2)cc1` , respond with its activation.
### Response -0.46

### Prompt Identify activation associated with the compound `Clc1ccc(Nc2nc(-c3cccs3)cs2)nc1`
### Response 1.83

### Prompt Answer with the recorded activation of `COc1ccc(NCCc2ccccn2)cc1` only.
### Response 1.17

### Prompt Look up and state reported activation for `Cc1ccc(SCCSc2ncccn2)cc1`
### Response 0.96

### Prompt Answer with the recorded activation for the compound listed here: O=C(CN1C(=O)C2C3C=CC(C3)C2C1=O)Nc1nc(-c2ccccn2)cs1 (stereo not drawn)
### Response 0.32

### Prompt For `Cc1cccc(Nc2nc(-c3ccccc3)cs2)n1` , write its activation.
### Response 2.9

### Prompt Entry `COc1ccc(Nc2nc(-c3ccccc3)cs2)cc1` needs its activation filled in; supply it.
### Response 4.09
